Test target: BaF3 BRAF-KIAA1549 fusion cells (Homo sapiens, UniProt P15056)
Construct: The BRAF-KIAA1549 fusion mutant was subcloned into pMXs-IRES-Blasticidin (RTV-016, Cell Biolabs, San Diego, CA); No tag given; Q9HCM3 (UPF0606 protein KIAA1549)
Sequence (P15056 whole entry, change not shown, the tested form may be a part): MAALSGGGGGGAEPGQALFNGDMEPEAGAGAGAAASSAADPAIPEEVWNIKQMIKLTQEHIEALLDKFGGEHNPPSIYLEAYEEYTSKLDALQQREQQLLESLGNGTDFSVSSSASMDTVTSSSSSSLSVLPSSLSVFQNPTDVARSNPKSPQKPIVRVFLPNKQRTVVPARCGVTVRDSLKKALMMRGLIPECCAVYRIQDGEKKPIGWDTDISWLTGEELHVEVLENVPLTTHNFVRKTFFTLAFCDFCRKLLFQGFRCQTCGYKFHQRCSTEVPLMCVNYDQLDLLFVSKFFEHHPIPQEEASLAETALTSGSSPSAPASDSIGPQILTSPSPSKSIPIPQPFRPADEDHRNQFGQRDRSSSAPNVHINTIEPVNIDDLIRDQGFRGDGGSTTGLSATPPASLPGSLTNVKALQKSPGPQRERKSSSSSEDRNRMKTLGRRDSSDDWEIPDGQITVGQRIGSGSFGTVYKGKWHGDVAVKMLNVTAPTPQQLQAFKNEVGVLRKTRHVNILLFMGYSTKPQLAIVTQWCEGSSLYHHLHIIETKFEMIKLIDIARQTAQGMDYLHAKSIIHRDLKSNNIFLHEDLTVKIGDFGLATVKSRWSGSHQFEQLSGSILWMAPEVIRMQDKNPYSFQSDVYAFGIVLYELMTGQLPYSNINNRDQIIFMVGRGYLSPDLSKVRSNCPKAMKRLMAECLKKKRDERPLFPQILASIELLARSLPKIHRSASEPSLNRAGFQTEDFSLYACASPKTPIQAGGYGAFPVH
Procedure text: BaF3 BRAF-KIAA1549 fusion cell proliferation assay (CellTiterGlo, 96 hours)
Format: cell-based
Condition parameters: Table A2
The molecules listed here are annotated with their GI50.

molecule="CNc1cc2ncc(-c3cc(NC(=O)c4cc([C@@H](O)C(C)(F)F)ccn4)cnc3C)cc2cn1 (single isomer, unassigned)" reported_value="20 to 100 nM"
molecule=CNc1cc2ncc(-c3cc(NC(=O)c4ccnc(C5(F)CC5)c4)c(F)cc3C)cc2cn1 reported_value="20 to 100 nM"
molecule=CNc1cc2ncc(-c3cc(NC(=O)c4cnc5n4CCCCC5)cnc3C)cc2cn1 reported_value="100 to 500 nM"
molecule="CNc1cc2ncc(-c3cc(NC(=O)c4cc(C(O)CC(F)(F)F)ccn4)cnc3C)cc2cn1 (stereo not shown)" reported_value="20 to 100 nM"
molecule="CNc1cc2ncc(-c3cc(NC(=O)c4cnc5n4C(C)CCC5)ccc3C)cc2cn1 (stereo not shown)" reported_value="100 to 500 nM"

Query :: Identify measured GI50 associated with CNc1cc2ncc(-c3cc(NC(=O)c4cnc5n4CCC(C)C5)ccc3C)cc2cn1 (stereo not shown)
Result :: ≥ 500 nM

Query :: Identify measured GI50 associated with `CNc1cc2ncc(-c3cc(NC(=O)c4noc5c4CC(C)(C)CC5)cnc3C)cc2cn1`
Result :: 20 to 100 nM

Query :: Identify measured GI50 associated with CNc1cc2ncc(-c3cc(NC(=O)c4cc(C(N(C)C)C(F)(F)F)ccn4)ccc3C)cc2cn1 (stereo not shown)
Result :: 20 to 100 nM

Query :: Identify measured GI50 associated with `CNc1cc2ncc(-c3cc(NC(=O)c4cccc5c4CCC5=O)cnc3C)cc2cn1`
Result :: ≥ 500 nM

Query :: Identify measured GI50 associated with `CNc1cc2ncc(-c3cc(NC(=O)c4n[nH]c5c4C[C@H](C)O[C@@H]5C)ccc3C)cc2cn1`
Result :: 20 to 100 nM

Query :: Identify measured GI50 associated with `CNc1ncc2cc(-c3cc(NC(=O)c4ccnc(C(C)(C)C#N)c4)cnc3C)cnc2c1C#N`
Result :: 100 to 500 nM

Query :: Identify measured GI50 associated with CNc1cc2ncc(-c3cc(NC(=O)c4noc5c4C[C@@H](C)CC5)ccc3C)cc2cn1 (single isomer, unassigned)
Result :: 20 to 100 nM

Query :: Identify measured GI50 associated with CNc1cc2ncc(-c3cc(NC(=O)c4n[nH]c5c4CC(C)CC5)ccc3C)cc2cn1 (stereo not shown)
Result :: < 20 nM

Query :: Identify measured GI50 associated with `CNc1cc2ncc(-c3cc(NC(=O)c4c[nH]c5ccc(C)cc45)ccc3C)cc2cn1`
Result :: < 20 nM

Query :: Identify measured GI50 associated with `CNc1cc2ncc(-c3cc(NC(=O)c4n[nH]c5c4CCCC5)cnc3C)cc2cn1`
Result :: 20 to 100 nM

Query :: Identify measured GI50 associated with `CNc1cc2ncc(-c3cc(NC(=O)c4n[nH]c5c4C[C@@H]4C[C@H]54)cnc3C)cc2cn1`
Result :: 20 to 100 nM

Query :: Identify measured GI50 associated with `CNc1cc2ncc(-c3cc(NC(=O)c4noc5c4CN(C(C)C)CC5)cnc3C)cc2cn1`
Result :: 100 to 500 nM

Query :: Identify measured GI50 associated with CNc1cc2ncc(-c3cc(NC(=O)c4cnn5c4CC(C)CC5)ccc3C)cc2cn1 (stereo not shown)
Result :: < 20 nM

* * *

The molecules listed here are annotated with their GI50.
Test target: BaF3 BRAF-KIAA1549 fusion cells (Homo sapiens)
Construct: The BRAF-KIAA1549 fusion mutant was subcloned into pMXs-IRES-Blasticidin (RTV-016, Cell Biolabs, San Diego, CA); No tag given; Q9HCM3 (UPF0606 protein KIAA1549)
Procedure text: BaF3 BRAF-KIAA1549 fusion cell proliferation assay (CellTiterGlo, 96 hours)
Type: cell-based
Condition parameters: Table A1

Reference set, count: 2
molecule="CNc1cc2ncc(-c3cc(NC(=O)c4cc(C(F)(F)F)ccn4)ccc3C)cc2cn1 [Compound 1]" reported_value="< 0.02 µM"
molecule="CNc1cc2ncc(-c3cc(NC(=O)c4ccnc(C(F)F)c4)cnc3C)cc2cn1 [Compound 28]" reported_value="0.1 to 0.5 µM"

Query :: Identify measured GI50 associated with CNc1cc2ncc(-c3cc(NC(=O)c4ccnc(C(C)(F)F)c4)ccc3C)cc2cn1 [Compound 9]
Result :: < 0.02 µM

* * *

The molecules listed here are annotated with their GI50.
Test target: BaF3 BRAF-KIAA1549 fusion cells (Homo sapiens)
Construct: The BRAF-KIAA1549 fusion mutant was subcloned into pMXs-IRES-Blasticidin (RTV-016, Cell Biolabs, San Diego, CA); No tag given; Q9HCM3 (UPF0606 protein KIAA1549)
Procedure text: BaF3 BRAF-KIAA1549 fusion cell proliferation assay (CellTiterGlo, 96 hours)
Assay type: cell-based
Condition parameters: Table A1
Description: Retroviral Production: The BRAF-KIAA1549 fusion mutant was subcloned into pMXs-IRES-Blasticidin (RTV-016, Cell Biolabs, San Diego, CA). Retrovirus was produced by transfection of HEK 293T cells with the retroviral BRAF mutant expression vector pMXs-IRES-Blasticidin (RTV-016, Cell Biolabs), pCMV-Gag-Pol vector and pCMV-VSV-G-Envelope vector. Briefly, HEK 293T cells were plated in Poly-D-lysine coated 6-well plate (2.5×10^5 cells per well) and incubated overnight. […]

smiles_input=Cc1ncc(NC(=O)c2cc(C(C)(C)C#N)ccn2)cc1-c1cnc2cc(N)ncc2c1 reported_value="20 to 100 nM"
smiles_input=CNc1cc2ncc(-c3cc(NC(=O)c4cc(C(C)(C)C#N)ccn4)c(Cl)cc3C)cc2cn1 reported_value="100 to 500 nM"
smiles_input=CNc1cc2ncc(-c3cc(NC(=O)c4ccnc(C(F)F)c4)ccc3C)cc2cn1 reported_value="20 to 100 nM"

Next molecule, please.
Query :: Identify measured GI50 associated with `CNc1cc2ncc(-c3cc(NC(=O)c4cc(C(C)(C)C#N)ccn4)cnn3)cc2cn1`
Result :: < 20 nM

* * *

The compounds listed here are annotated with their GI50.
Test target: BaF3 BRAF-KIAA1549 fusion cells (Homo sapiens)
Construct: The BRAF-KIAA1549 fusion mutant was subcloned into pMXs-IRES-Blasticidin (RTV-016, Cell Biolabs, San Diego, CA); No tag given; Q9HCM3 (UPF0606 protein KIAA1549)
Procedure text: BaF3 BRAF-KIAA1549 fusion cell proliferation assay (CellTiterGlo, 96 hours)
Format: cell-based
Condition parameters: Table A2

Reference set, count: 5
compound=CNc1cc2ncc(-c3cc(NC(=O)c4cccc(C(C)(C)C#N)c4)c(F)cc3C)cc2cn1 measurement_type=GI50 reported_value="20 to 100 nM"
compound=CNc1cc2ncc(-c3cc(NC(=O)c4noc5c4CCCCC5)cnc3C)cc2cn1 measurement_type=GI50 reported_value="20 to 100 nM"
compound="CCC(C)c1ccnc(C(=O)Nc2cnc(C)c(-c3cnc4cc(NC)ncc4c3)c2)c1 (centres unmarked)" measurement_type=GI50 reported_value="20 to 100 nM"
compound="CNc1cc2ncc(-c3cc(NC(=O)c4noc5c4CC(C(C)(C)C)CC5)cnc3C)cc2cn1 (centres unmarked)" measurement_type=GI50 reported_value="100 to 500 nM"
compound=CNc1cc2ncc(-c3cc(NC(=O)c4cccc5c4CCCC5=O)cnc3C)cc2cn1 measurement_type=GI50 reported_value="≥ 500 nM"

Query :: Identify measured GI50 associated with `CNc1cc2ncc(-c3cc(NC(=O)N(C)c4ccnc(C(F)F)c4)cnc3C)cc2cn1`
Result :: 100 to 500 nM

Query :: Identify measured GI50 associated with CNc1cc2ncc(-c3cc(NC(=O)c4ccccc4NC(C)C(F)F)cnc3C)cc2cn1 (centres unmarked)
Result :: 20 to 100 nM

Query :: Identify measured GI50 associated with CNc1cc2ncc(-c3cc(NC(=O)c4cccc5c4OC(C)C5)cnc3C)cc2cn1 (centres unmarked)
Result :: ≥ 500 nM

* * *

The compounds listed here are annotated with their GI50.
Test target: BaF3 BRAF-KIAA1549 fusion cells (Homo sapiens, UniProt P15056)
Construct: The BRAF-KIAA1549 fusion mutant was subcloned into pMXs-IRES-Blasticidin (RTV-016, Cell Biolabs, San Diego, CA); No tag given; Q9HCM3 (UPF0606 protein KIAA1549)
Procedure text: BaF3 BRAF-KIAA1549 fusion cell proliferation assay (CellTiterGlo, 96 hours)
Assay type: cell-based
Condition parameters: Table A2

Reference set, count: 2
compound="CNc1cc2ncc(-c3cc(NC(=O)c4cccc(C(C)(C)C#N)c4)ccc3C)cc2cn1 [Compound 193]" measurement_type=GI50 reported_value="< 20 nM"
compound="CNc1cc2ncc(-c3cc(NC(=O)c4nccc(C(C)C)c4Cl)cnc3C)cc2cn1 [Compound 256]" measurement_type=GI50 reported_value="20 to 100 nM"

Query :: Give the observed GI50 of CNc1cc2ncc(-c3cc(NC(=O)c4cc(C(O)(O)C(F)(F)F)ccn4)cnc3C)cc2cn1 [Compound 206] for BaF3 BRAF-KIAA1549 fusion cells (Homo sapiens, UniProt P15056).
Result :: 20 to 100 nM
